For each record, write down the corresponding pIC50.
biological target: human recombinant GPR65 (Homo sapiens); experiment: Human GPR65 cAMP HTRF antagonist assay; details: 1321N1-hrGPR65 cells stimulated at assay pH 7.2; suppression of cAMP rise; read-out: hGPR65 IC50
Sequence (Q8IYL9 whole entry): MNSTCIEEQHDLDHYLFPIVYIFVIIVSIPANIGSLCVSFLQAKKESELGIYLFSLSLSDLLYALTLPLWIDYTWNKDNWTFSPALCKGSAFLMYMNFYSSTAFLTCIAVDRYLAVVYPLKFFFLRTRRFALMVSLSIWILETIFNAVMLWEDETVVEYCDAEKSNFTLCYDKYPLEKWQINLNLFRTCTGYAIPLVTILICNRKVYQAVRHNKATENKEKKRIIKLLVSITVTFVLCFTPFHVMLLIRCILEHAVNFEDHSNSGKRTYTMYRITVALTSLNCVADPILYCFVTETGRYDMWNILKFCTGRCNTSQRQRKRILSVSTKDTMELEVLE
pIC50: −log10 of the molar value.

So for O=C(Nc1ccc(C(F)(F)F)c(Cl)c1)N1CCc2cc(=O)[nH]cc2C1 [Compound 74] , the logged pIC50 turned out to be > 6.30

So for O=C(Nc1ccc(Cl)c(Cl)c1)N1CCc2nccnc2C1 [Compound 23] , the logged pIC50 turned out to be < 5.30

So for Cc1cccc2c1CCN(C(=O)Nc1ccc(Cl)c(Cl)c1)C2 [Compound 58] , the logged pIC50 turned out to be 5.30 to 6.30

So for Cc1ccc2c(c1)CCN(C(=O)Nc1ccc(C(F)(F)F)c(Cl)c1)C2 [Compound 136] , the logged pIC50 turned out to be 5.30 to 6.30

So for O=C(Nc1ccc(C(F)(F)F)c(Cl)c1)N1CCc2ncccc2C1 [Compound 22] , the logged pIC50 turned out to be < 5.30

---

For each record, write down the corresponding IC50.
target: human recombinant GPR65 (Homo sapiens); test: Human GPR65 cAMP HTRF antagonist assay; conditions: 1321N1-hrGPR65 cells stimulated at assay pH 7.2; suppression of cAMP rise; read-out: hGPR65 IC50

So for O=C(Nc1ccc(Cl)c(Cl)c1)N1CCc2ccncc2C1 , the logged IC50 turned out to be 0.5 to 5 µM

So for Nc1cc2c(cn1)CN(C(=O)Nc1ccc(Cl)c(Cl)c1)CC2 , the logged IC50 turned out to be > 5 µM

So for COc1cccc2c1CCN(C(=O)Nc1ccc(Cl)c(C(F)(F)F)c1)C2 , the logged IC50 turned out to be 0.5 to 5 µM

So for O=C(Nc1ccc(Cl)c(C(F)(F)F)c1)N1CCc2ccncc2C1 , the logged IC50 turned out to be 0.5 to 5 µM

So for O=C(Nc1ccc(C(F)(F)F)c(Cl)c1)N1CCc2ccc(C(F)(F)F)cc2C1 , the logged IC50 turned out to be 0.5 to 5 µM

So for Cc1cccc2c1CCN(C(=O)Nc1ccc(Cl)c(C(F)(F)F)c1)C2 , the logged IC50 turned out to be 0.5 to 5 µM

So for COc1ccc2c(c1)CCN(C(=O)Nc1ccc(Cl)c(C(F)(F)F)c1)C2 , the logged IC50 turned out to be 0.5 to 5 µM

So for O=C(Nc1ccc(Cl)c(Cl)c1)N1CCc2cc(F)ncc2C1 , the logged IC50 turned out to be < 0.5 µM

So for O=C(Nc1ccc(Cl)c(Cl)c1)N1CCc2ncncc2C1 , the logged IC50 turned out to be 0.5 to 5 µM

So for O=C(Nc1ccc(C(F)(F)F)c(Cl)c1)N1CCc2cnccc2C1 , the logged IC50 turned out to be < 0.5 µM

So for O=C(Nc1ccc(Cl)c(Cl)c1)N1CCc2nc(F)ccc2C1 , the logged IC50 turned out to be < 0.5 µM

So for O=C(Nc1ccc(Cl)c(Cl)c1)N1CCc2cc3ncnn3cc2C1 , the logged IC50 turned out to be > 5 µM

So for COc1cccc2c1CCN(C(=O)Nc1ccc(C(F)(F)F)c(Cl)c1)C2 , the logged IC50 turned out to be 0.5 to 5 µM

So for O=C(Nc1ccc(C(F)(F)F)c(Cl)c1)N1CCc2nccnc2C1 , the logged IC50 turned out to be > 5 µM

So for O=C(Nc1ccc(Cl)c(Cl)c1)N1CCc2cc(-c3cccs3)ccc2C1 , the logged IC50 turned out to be > 5 µM

So for O=C(Nc1ccc(Cl)c(Cl)c1)N1CCc2cccc(Cl)c2C1 , the logged IC50 turned out to be 0.5 to 5 µM

So for O=C(Nc1ccc(C(F)(F)F)c(Cl)c1)N1CCc2ccccc2C1 , the logged IC50 turned out to be 0.5 to 5 µM

So for O=C(Nc1ccc(Cl)c(C(F)(F)F)c1)N1CCc2[nH]c(=O)ccc2C1 , the logged IC50 turned out to be > 5 µM

So for O=C(Nc1cccc(Cl)c1)N1CCc2ncncc2C1 , the logged IC50 turned out to be > 5 µM

So for O=C(Nc1ccc(C(F)(F)F)c(Cl)c1)N1CCc2c[nH]c(=O)cc2C1 , the logged IC50 turned out to be > 5 µM

So for Cc1cccc2c1CN(C(=O)Nc1ccc(Cl)c(Cl)c1)CC2 , the logged IC50 turned out to be 0.5 to 5 µM

So for Cc1ccc2c(c1)CN(C(=O)Nc1ccc(C(F)(F)F)c(Cl)c1)CC2 , the logged IC50 turned out to be 0.5 to 5 µM

So for COc1ccc2c(c1)CN(C(=O)Nc1ccc(C(F)(F)F)c(Cl)c1)CC2 , the logged IC50 turned out to be 0.5 to 5 µM

So for O=C(Nc1ccc(Cl)c(Cl)c1)N1CCc2cc3cncn3cc2C1 , the logged IC50 turned out to be < 0.5 µM

So for O=C(Nc1ccc(Cl)c(C(F)(F)F)c1)N1CCc2cc(Cl)ccc2C1 , the logged IC50 turned out to be < 0.5 µM

So for Cc1ccc2c(c1)CN(C(=O)Nc1ccc(Cl)c(Cl)c1)CC2 , the logged IC50 turned out to be > 5 µM

So for O=C(Nc1ccc(C(F)(F)F)c(Cl)c1)N1CCc2c(Cl)cccc2C1 , the logged IC50 turned out to be 0.5 to 5 µM

So for O=C(Nc1ccc(C(F)(F)F)cc1)N1CCc2ncncc2C1 , the logged IC50 turned out to be > 5 µM

So for N#Cc1cccc2c1CN(C(=O)Nc1ccc(C(F)(F)F)c(Cl)c1)CC2 , the logged IC50 turned out to be 0.5 to 5 µM

So for O=C(Nc1ccc(C(F)(F)F)c(Cl)c1)N1CCc2c(cccc2C(F)(F)F)C1 , the logged IC50 turned out to be > 5 µM

So for O=C(Nc1ccc(Cl)c(C(F)(F)F)c1)N1CCc2ncncc2C1 , the logged IC50 turned out to be 0.5 to 5 µM

So for COc1ccc2c(c1)CN(C(=O)Nc1ccc(Cl)c(Cl)c1)CC2 , the logged IC50 turned out to be 0.5 to 5 µM

So for O=C(Nc1ccc(Cl)c(C(F)(F)F)c1)N1CCc2oncc2C1 , the logged IC50 turned out to be 0.5 to 5 µM

So for COC(=O)c1ccc2c(c1)CCN(C(=O)Nc1ccc(Cl)c(Cl)c1)C2 , the logged IC50 turned out to be < 0.5 µM

So for O=C(Nc1ccc(Cl)c(Cl)c1)N1CCc2cc3nccn3cc2C1 , the logged IC50 turned out to be > 5 µM

So for N#Cc1cc2c(cn1)CN(C(=O)Nc1ccc(Cl)c(Cl)c1)CC2 , the logged IC50 turned out to be 0.5 to 5 µM

So for O=C(Nc1ccc(Cl)c(Cl)c1)N1CCc2cn3cncc3cc2C1 , the logged IC50 turned out to be < 0.5 µM
